subject-of-test: T1, human CD98, endogenously expressed on Molt-4 human acute lymphoblastic leukemia cells (human)
T1 chain: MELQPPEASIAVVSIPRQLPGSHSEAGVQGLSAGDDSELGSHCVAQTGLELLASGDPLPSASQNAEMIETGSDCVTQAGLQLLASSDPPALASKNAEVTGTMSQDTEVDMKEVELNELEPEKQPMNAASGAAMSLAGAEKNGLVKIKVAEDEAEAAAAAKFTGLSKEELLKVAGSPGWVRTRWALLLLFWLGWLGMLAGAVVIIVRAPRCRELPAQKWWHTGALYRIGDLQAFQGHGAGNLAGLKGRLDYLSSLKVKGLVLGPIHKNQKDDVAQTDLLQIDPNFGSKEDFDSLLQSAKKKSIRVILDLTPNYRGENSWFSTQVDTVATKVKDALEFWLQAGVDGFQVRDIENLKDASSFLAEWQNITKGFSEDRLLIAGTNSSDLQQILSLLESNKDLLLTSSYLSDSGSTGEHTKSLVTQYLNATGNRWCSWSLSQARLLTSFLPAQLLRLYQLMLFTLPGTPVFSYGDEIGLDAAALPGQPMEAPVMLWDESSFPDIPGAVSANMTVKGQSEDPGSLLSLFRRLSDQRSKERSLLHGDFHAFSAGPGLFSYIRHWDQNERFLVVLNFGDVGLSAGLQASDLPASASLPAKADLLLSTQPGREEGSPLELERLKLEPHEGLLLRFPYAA
assay-protocol: cell-based or functional assay
# reported % Cell Viability at 50 nM; entries follow
measured-quantity: % Cell Viability at 50 nM (%)

[[record]]
binder = "CD98 (CL-huAb102)-AAA (antibody, human IgG1, kappa, L234A L235A, V domains shown, synthon AAA on reduced interchain cysteines (sites not given)) VH: EVQLVESGGGLVQPGGSLRLSCATSGFTFIDYYMSWVRQAPGKGLEWLGFIRNKANRYTTEYSASVKGRFTISRDNSKSILYLQMNSLKTEDTAVYYCTRDRPAWFVYWGQGTLVTVSS VL: DIVMTQTPLSLPVTPGEPASISCKSSQSLLYSSNQKNYLAWYLQKPGQSPQLLIYWASTRESGVPDRFSGSGSGTDFTLKISRVEAEDVGVYYCQQYYSYPYTFGGGTKVEIKR"
measured_quantity = "% Cell Viability at 50 nM"
measurement_units = "%"
observed_result = 2.4

[[record]]
binder = "CD98 (CL-huAb110)-CZ (antibody, human IgG1, kappa, L234A L235A, V domains shown, synthon CZ on reduced interchain cysteines (sites not given)) VH: EVQLVQSGAEVKKPGASVKVSCKASGFTFSDYTMAWVRQAPGQGLEWVATIIYDARGTYYRDAVKGRFTITRDNSTSTLYLELSSLRSEDTAVYYCARQSDDTYYYWGYFDYWGQGTMVTVSS VL: DIVMTQTPLSLPVTPGEPASINCKSSQSLLFSGNQKNYLAWYLQKPGQSPQLLIYWASTRQSGVPDRFSGSGSGTDFTLKISRVEAEDVGIYYCQQYYSSPYTFGQGTKLEIKR"
measured_quantity = "% Cell Viability at 50 nM"
measurement_units = "%"
observed_result = 0.8

[[record]]
binder = "CD98 (CL-huAb110)- LB (antibody, human IgG1, kappa, L234A L235A, V domains shown, synthon LB on reduced interchain cysteines (sites not given)) VH: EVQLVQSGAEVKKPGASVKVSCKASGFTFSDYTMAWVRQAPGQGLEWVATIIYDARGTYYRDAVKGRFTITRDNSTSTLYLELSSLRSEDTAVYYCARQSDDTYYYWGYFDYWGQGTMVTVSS VL: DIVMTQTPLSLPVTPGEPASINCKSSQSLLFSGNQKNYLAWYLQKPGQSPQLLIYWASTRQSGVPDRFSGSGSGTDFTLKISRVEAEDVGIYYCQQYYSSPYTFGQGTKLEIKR"
measured_quantity = "% Cell Viability at 50 nM"
measurement_units = "%"
observed_result = 1.9

[[record]]
binder = "CD98 (CL-huAb102)-CZ (antibody, human IgG1, kappa, L234A L235A, V domains shown, synthon CZ on reduced interchain cysteines (sites not given)) VH: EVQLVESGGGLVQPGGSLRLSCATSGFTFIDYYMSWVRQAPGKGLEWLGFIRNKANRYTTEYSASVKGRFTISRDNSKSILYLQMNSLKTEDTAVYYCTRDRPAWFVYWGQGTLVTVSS VL: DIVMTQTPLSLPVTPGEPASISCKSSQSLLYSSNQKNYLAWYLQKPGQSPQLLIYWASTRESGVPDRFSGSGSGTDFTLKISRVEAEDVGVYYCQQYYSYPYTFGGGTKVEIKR"
measured_quantity = "% Cell Viability at 50 nM"
measurement_units = "%"
observed_result = 1

[[record]]
binder = "CD98 (CL-huAb102)-TV (antibody, human IgG1, kappa, L234A L235A, V domains shown, synthon TV on reduced interchain cysteines (sites not given)) VH: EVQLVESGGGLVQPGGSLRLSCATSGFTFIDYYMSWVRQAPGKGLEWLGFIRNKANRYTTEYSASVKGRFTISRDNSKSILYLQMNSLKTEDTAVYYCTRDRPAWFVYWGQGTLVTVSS VL: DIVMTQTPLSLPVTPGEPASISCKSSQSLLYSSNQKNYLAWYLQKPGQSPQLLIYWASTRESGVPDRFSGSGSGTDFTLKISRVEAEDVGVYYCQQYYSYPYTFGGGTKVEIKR"
measured_quantity = "% Cell Viability at 50 nM"
measurement_units = "%"
observed_result = 1.5

